Field: Size (nm). Provide a value for each of the compounds that follow.
- ASSAY INFO: Particle size and polydispersity index of nanoparticle compositions (Zetasizer Nano ZS)
- Format: physicochemical
- CONDITION PARAMETERS: Table 1c; nanoparticle compositions
All answers are understood in nm, so give the number only.

Exercise: Supply recorded Size (nm) for CC/C=C\COC(=O)CCCN(CCCCCCCCC)CC(=O)N1CCN(C(=O)CN(CCCCCCCCC)CCN(CCCCCCCCC)CCCCCCCCC)CC1 here.
Key: 80.6

Exercise: Specify measured Size (nm) for CCCCCCCCCCCCCCN(CCCCCC(=O)OCCCCCCC)CC(=O)N1CCN(C(=O)CN(CCCCCCCCC)CCN(CCCCCCCCC)CCCCCCCCC)CC1 .
Key: 82.9

Exercise: Answer with the recorded Size (nm) of CCCCCCCCCN(CCCCCCCCC)CCN(CCCCCCCCC)CC(=O)N1CCN(C(=O)CN(CCCCCCCCC)CC(C)COC(=O)CCCCC)CC1 (stereo not drawn) only.
Key: 84.9

Exercise: Let me know recorded Size (nm) for CCCCCCCCCN(CCCCCCCCC)CCN(CCCCCCCCC)CC(=O)N(C)CCN(C)C(=O)CN(CCCCCCCCC)CCCC(=O)OCCCCC , thanks.
Key: 79.1

Exercise: State, in one line, measured Size (nm) of CCCCC/C=C\CCN(CC/C=C\CCCCC)CCN(CC/C=C\CCCCC)CC(=O)N1CCN(C(=O)CN(CCCCCCCCC)CCCCCCCCC)CC1
Key: 72.1

Exercise: Give the value of Size (nm) reported for the following: CCCCCCCCCN(CCCCCCCCC)CCN(CCCCCCCCC)CC(=O)N1CCN(C(=O)C(C)N(CCCCCCCCC)CCCC(=O)OCCCCC)CC1 (stereo not drawn)
Key: 86.8

----------
Please respond with reported PDI for every item in the list.
- ASSAY INFO: Particle size and polydispersity index of nanoparticle compositions (Zetasizer Nano ZS)
- Format: physicochemical
- CONDITION PARAMETERS: Table 1f, Formulated with lipid:Chol:DOPE:PEG 1 40:38.5:20:1.5
- Description: A Zetasizer Nano ZS (Malvem Instruments Ltd, Malvem, Worcestershire, UK) can be used to determine the particle size, the polydispersity index (PDI) and the zeta potential of the nanoparticle compositions in 1×PBS in determining particle size and 15 mM PBS in determining zeta potential.
Provide a numeric answer; units are not to be included.

Exercise: Give PDI for CCCCCCCCCN(CCCCCCCCC)CCN(CCCCCCCCC)CC(=O)OC(C)CC(C)OC(=O)CN(CCCCCCCCC)CCCCCCCCC (stereo not drawn) [Compound 189]
Key: 0.16

Exercise: For the compound CCCCCCCCCOC(=O)CCCCCCCN(CCCCCCCC(=O)OC(CCCCCCCC)CCCCCCCC)CCCCC(=O)OC(C)CC(C)OC(=O)CCCCN(CCCCCCCC(=O)OCCCCCCCCC)CCCCCCCC(=O)OC(CCCCCCCC)CCCCCCCC (stereo not drawn) [Compound 187] , give its measured PDI value.
Key: 0.20

Exercise: Check the records and state PDI for CCCCCCCCCOC(=O)CCCCCCCN(CCCCCCCC(=O)OC(CCCCCCCC)CCCCCCCC)CCCCC(=O)N(CC)CCN(CC)C(=O)CCCCN(CCCCCCCC(=O)OCCCCCCCCC)CCCCCCCC(=O)OC(CCCCCCCC)CCCCCCCC [Compound 181]
Key: 0.25

Exercise: Please report PDI for the following compound: CCCCCCCCCN(CCCCCCCCC)CCN(CCCCCCCCC)CC(=O)OC(C)C(C)OC(=O)CN(CCCCCCCCC)CCCCCCCCC (stereo not drawn) [Compound 188]
Key: 0.12

Exercise: // Input: CCCCCCCCCOC(=O)CCCCCCCN(CCCCCCCC(=O)OC(CCCCCCCC)CCCCCCCC)CCCCC(=O)OCCOC(=O)CCCCN(CCCCCCCC(=O)OCCCCCCCCC)CCCCCCCC(=O)OC(CCCCCCCC)CCCCCCCC [Compound 185] . Output its PDI only.
Key: 0.27

Exercise: Identify PDI associated with the compound CCCCCCCCCOC(=O)CCCCCCCN(CCCCCCCC(=O)OC(CCCCCCCC)CCCCCCCC)CCCCC(=O)OC(C)C(C)OC(=O)CCCCN(CCCCCCCC(=O)OCCCCCCCCC)CCCCCCCC(=O)OC(CCCCCCCC)CCCCCCCC (stereo not drawn) [Compound 186]
Key: 0.21

Exercise: Identify measured PDI corresponding to CCCCCCCCCOC(=O)CCCCCCCN(CCCCCCCC(=O)OC(CCCCCCCC)CCCCCCCC)CCCCC(=O)N(C)CCCN(C)C(=O)CCCCN(CCCCCCCC(=O)OCCCCCCCCC)CCCCCCCC(=O)OC(CCCCCCCC)CCCCCCCC [Compound 182]
Key: 0.28

----------
- ASSAY INFO: pKa of nanoparticle compositions
- Assay type: physicochemical
- CONDITION PARAMETERS: Table 1b
EXPERIMENTAL ENDPOINT: pKa

Exercise: Indicate the recorded pKa value for this compound: CCCCCCCCCN(CCCC(=O)OCCCCC)CCC1CCN(C(=O)CN(CCCCCCCCC)CCN(CCCCCCCCC)CCCCCCCCC)C1 (stereo not drawn) [Compound 81]
Key: 7.22

Exercise: State its pKa for this compound: CCCCCCCCCN(CCCCCCCCC)CCC1CCCN(C(=O)CN(CCCCCCCCC)CCN(CCCCCCCCC)CCCCCCCCC)C1 (stereo not drawn) [Compound 73]
Key: 6.65

Exercise: For the compound CCCCCCCCCN(CCCC(=O)OCCCCC)CCC(=O)N1CCN(C(=O)CCN(CCCCCCCCC)CCN(CCCCCCCCC)CCCCCCCCC)CC1 [Compound 62] , give its reported pKa.
Key: 7.56

----------
- ASSAY INFO: Lipid purity change after storage in EtOH for 96 h at 25 or 37 °C
- Type: physicochemical
- CONDITION PARAMETERS: 37° C.
EXPERIMENTAL ENDPOINT: Lipid % change purity in EtOH, 37° C., 96 h
Answer format reminder: number followed by unit.

Exercise: // fetch Lipid % change purity in EtOH, 37° C., 96 h given entry CCCCCCCCCN(CCCCCCCCC)CCN(CCCCCCCCC)CC(=O)N1CCC(CCOC(=O)CN(CCCCCCCCC)CCCCCCCCC)CC1 [Compound 114]
Key: 9%

Exercise: Input CCCCCCCCCN(CCCOC(=O)CCCCC)CCC(=O)N1CCN(C(=O)CCN(CCCCCCCCC)CCN(CCCCCCCCC)CCCCCCCCC)CC1 [Compound 86] , output reported Lipid % change purity in EtOH, 37° C., 96 h.
Key: 20.8%

Exercise: # return recorded Lipid % change purity in EtOH, 37° C., 96 h for entry CCCCCCCCCN(CCCCCCCCC)CCN(CCCCCCCCC)CC(=O)N1CCN(C(=O)CN(CCCCCCCCC)CCCOC(=O)CC(C)CCC)CC1 (stereo not drawn) [Compound 131]
Key: 12.43%

Exercise: Report Lipid % change purity in EtOH, 37° C., 96 h for CCCCCCCCCCCCCCN(CCCCCCCC(=O)OCCCCC)CCC1CCN(C(=O)CN(CCCCCCCCC)CCN(CCCCCCCCC)CCCCCCCCC)CC1 [Compound 93]
Key: 2.2%

Exercise: Supply reported Lipid % change purity in EtOH, 37° C., 96 h belonging to this molecule: CCCCCCCCCCCCCCN(CCCOC(=O)CCCCCCCCC)CCC1CCN(C(=O)CN(CCCCCCCCC)CCN(CCCCCCCCC)CCCCCCCCC)CC1 [Compound 92]
Key: 9%

Exercise: Indicate the recorded Lipid % change purity in EtOH, 37° C., 96 h value for this molecule: CCCCCCCCCCCCN(CCCOC(=O)CCCCCCC)CC(=O)N1CCN(C(=O)CN(CCCCCCCCC)CCN(CCCCCCCCC)CCCCCCCCC)CC1 [Compound 135]
Key: 4.09%

----------
- ASSAY INFO: Encapsulation efficiency of RNA (QUANT-IT RIBOGREEN RNA assay)
- Assay type: physicochemical
- CONDITION PARAMETERS: Table 1c; nanoparticle compositions
For each entry below, report its EE (%) value.
Phrase the answer as number then unit, nothing more needed.

Exercise: Annotate the compound CCCCCCCCCN(CCCCCCCCC)CCN(CCCCCCCCC)CC(=O)N(C)CCN(C)C(=O)CN(CCCCCCCCC)CCCCCCCCC [Compound 151] with its measured EE (%).
Key: 98.8%

Exercise: Input CCCCCCCCCCCCCCN(CCCOC(=O)CCCCCCCCC)CCC1CCN(C(=O)CN(CCCCCCCCC)CCN(CCCCCCCCC)CCCCCCCCC)CC1 [Compound 92] , output reported EE (%).
Key: 97.1%

Exercise: Name the recorded EE (%) of the item CCCCC/C=C\CCN(CC/C=C\CCCCC)CCN(CC/C=C\CCCCC)CC(=O)N1CCN(C(=O)CN(CCCCCCCCC)CCCCCCCCC)CC1 [Compound 136] in your answer.
Key: 97.7%
